Assay: log P determination by HPLC on reversed-phase column (EEC directive 79/831 Annex V.A8)
Type: physicochemical
Settings: reversed-phase C18 HPLC column; pH 2.3; HPLC reversed-phase C18, 43° C.
Hi! Could you tag entries with chromatographic logP below 2 as criterion met, and those at or above as criterion not met? Much appreciated.

Would you kindly verify if chromatographic logP of Cn1cc(C(=O)Nc2ccc(F)cc2-c2ccc(Cl)c(Cl)c2)c(I)n1 [Compound 6] is strictly less than 2?
criterion not met

Would you kindly verify if chromatographic logP of "CCOC(=O)/C(C#N)=C\N(C)/N=C/c1ccccc1" is strictly less than 2?
criterion not met

Would you kindly verify if chromatographic logP of "Cn1cc(C(=O)O)c(I)n1" is strictly less than 2?
criterion met

Would you kindly verify if chromatographic logP of "CCOC(=O)c1cn(C)nc1I" is strictly less than 2?
criterion met

Would you kindly verify if chromatographic logP of "CCOC(=O)c1cn(C)nc1N" is strictly less than 2?
criterion met

====

System: Venturia inaequalis
Assay: Venturia test (apple)/protective
Assay type: in vivo
Details: 240 h, protective, application rate 100 g/ha, evaluation 10 days after inoculation, read-out: Efficacy in %
measured_parameter: pest or weed control at 100 g/ha (%)
Respond numerically; units are % and should not be typed.

Return pest or weed control at 100 g/ha for the following compound: CCCO/N=C/c1ccc(-c2ccccc2NC(=O)c2cn(C)nc2I)cc1F [drawing 76]
100

Return pest or weed control at 100 g/ha for the following compound: CC(CC(C)(C)C)c1ccccc1NC(=O)c1cn(C)nc1I (stereo not shown) [drawing 69]
100

Return pest or weed control at 100 g/ha for the following compound: Cc1ccc(-c2ccccc2NC(=O)c2cn(C)nc2I)cc1F [drawing 77]
97

Return pest or weed control at 100 g/ha for the following compound: Cn1cc(C(=O)Nc2ccccc2-c2ccc(I)cc2)c(I)n1 [drawing 81]
99

Return pest or weed control at 100 g/ha for the following compound: Cn1cc(C(=O)Nc2ccccc2-c2ccc(Cl)c(Cl)c2)c(I)n1 [drawing 71]
99

Return pest or weed control at 100 g/ha for the following compound: CC1CC(C)(C)c2cccc(NC(=O)c3cn(C)nc3I)c21 (stereo not shown) [drawing 83]
100

Return pest or weed control at 100 g/ha for the following compound: Cn1cc(C(=O)Nc2ccccc2-c2ccc(Br)cc2)c(I)n1 [drawing 74]
100

====

Provide the recorded pest or weed control at 100 g/ha for the entries that follow.
Tested on: Venturia inaequalis
Test: Venturia test (apple)/protective
Type: in vivo
Conditions: 240 h, protective, application rate 100 g/ha, evaluation 10 days after inoculation, read-out: Efficacy in %

Return pest or weed control at 100 g/ha for the following compound: Cn1cc(C(=O)Nc2ccccc2-c2ccc(Cl)cc2)c(I)n1 [drawing 80]
100%

Return pest or weed control at 100 g/ha for the following compound: CC(C)CCc1ccccc1NC(=O)c1cn(C)nc1I [drawing 82]
98%

Return pest or weed control at 100 g/ha for the following compound: Cn1cc(C(=O)Nc2ccccc2-c2ccc(Cl)c(F)c2)c(I)n1 [drawing 75]
100%

Return pest or weed control at 100 g/ha for the following compound: Cn1cc(C(=O)Nc2ccccc2-c2ccc(C(F)(F)F)c(F)c2)c(I)n1 [drawing 79]
98%

Return pest or weed control at 100 g/ha for the following compound: CC(C)CC(C)c1ccccc1NC(=O)c1cn(C)nc1I (stereo not drawn) [drawing 70]
100%

Return pest or weed control at 100 g/ha for the following compound: Cn1cc(C(=O)Nc2ccc(F)cc2-c2ccc(Cl)c(Cl)c2)c(I)n1 [drawing 72]
100%

Return pest or weed control at 100 g/ha for the following compound: Cn1cc(C(=O)Nc2ccccc2-c2ccc(F)c(Cl)c2)c(I)n1 [drawing 73]
100%

Return pest or weed control at 100 g/ha for the following compound: Cn1cc(C(=O)Nc2ccccc2-c2ccc(C(F)(F)F)cc2)c(I)n1 [drawing 78]
94%

Return pest or weed control at 100 g/ha for the following compound: CC(C)CC(C)c1cc(F)ccc1NC(=O)c1cn(C)nc1I (stereo not drawn) [drawing 84]
100%

Where do the numbers come from? From patent US7906656B2.
